- System: A498 renal
- test method notes: NCI-60 one-dose screen, 48 h
- condition notes: 10 µM unless noted
Compounds without any hit were thinned out: in the full panel of roughly 83,000, 20% have a hit. Activity calls are given as the source filed them. The calls were made as follows: active = growth percent below 10; inactive = the rest.
Hi there, use one of these labels in your reply, thanks! active, inactive

Input: Field: outcome | Entry: CN(C)c1ccc(-c2c(NC(C)(C)C)nc3c(OCCc4ccccc4)cccn23)cc1
Output: inactive

Input: Moving on to the next molecule: COc1ccc(-c2nc3ccc(-c4nnc(SCC(=O)Nc5ccc(C(=O)/C=C/c6ccccc6)cc5)o4)cc3[nH]2)cc1OC
Output: inactive

Input: Moving on to the next molecule: Clc1ccc2oc3c(NCCCN4CCOCC4)c4ccccc4nc3c2c1
Output: active

Input: Moving on to the next molecule: O=C(CCCN1C(=O)/C(=C/c2ccccc2F)SC1=S)N1CCOCC1
Output: inactive

Input: Moving on to the next molecule: CCCC(=O)NC(c1ccc2c(c1)OC(F)(F)O2)c1cc(C)c2cccnc2c1O (centres undefined)
Output: active

Input: Moving on to the next molecule: Clc1ccc2c(NCCCn3ccnc3)c3oc4ccc(Cl)cc4c3nc2c1
Output: inactive

Input: Moving on to the next molecule: Clc1ccc(Cc2nnc3sc(-c4cccnc4)nn23)cc1
Output: inactive

Input: Moving on to the next molecule: O=C1Nc2ccc(Cl)cc2/C1=C/c1ccc(OCC(=O)c2ccc(Br)cc2)cc1
Output: inactive

Input: Moving on to the next molecule: Cn1cc(-c2cc(N)n3nc(-c4cn(C)c5ccc(Cl)cc45)cc3n2)c2cc(Cl)ccc21
Output: inactive

Input: Moving on to the next molecule: Cc1ccc(/C=C/c2nn3c(-c4ccco4)nnc3s2)cc1C
Output: inactive

Input: Moving on to the next molecule: COc1ccc(C(=O)c2cc(C(=O)/C=C/c3c(Cl)cccc3Cl)c3cc(C)ccn23)cc1
Output: inactive

Input: Moving on to the next molecule: CS(=O)(=O)c1ccc(-n2cc(/C=C/C(=O)c3ccc(NC(=O)CO[N+](=O)[O-])cc3)c(-c3ccc(Cl)cc3)n2)cc1
Output: inactive

Input: Moving on to the next molecule: O=C1Nc2cc(Cl)ccc2/C1=C\c1ccc(OCc2ccc([N+](=O)[O-])cc2)cc1
Output: inactive

Input: Moving on to the next molecule: Cc1ccc(CNS(=O)(=O)/N=C2\NC(=O)NC2=C(Cl)Cl)cc1
Output: inactive

Input: Moving on to the next molecule: O=C1Nc2cc(Cl)ccc2/C1=C\c1ccc(OCc2ccc(Br)cc2F)cc1
Output: active

Input: Moving on to the next molecule: CNC(=O)c1cc(-c2ccc(NC(=O)Nc3ccc(N4CCN(C)CC4)c(C(F)(F)F)c3)cc2)nc2cccnc12
Output: inactive

Input: Moving on to the next molecule: CCOC(=O)c1sc(N)c(C(=O)OCC)c1C
Output: inactive

Input: Moving on to the next molecule: COc1ccc(/C=C/C(=O)c2ccc(NC(=O)CSc3nnc(-c4ccc5nc(-c6ccc(Cl)cc6)[nH]c5c4)o3)cc2)cc1
Output: inactive

Input: Moving on to the next molecule: CN(C)CCCNc1c2ccc(Cl)cc2nc2c1oc1ccccc12
Output: active

Input: Moving on to the next molecule: CS(=O)(=O)Nc1ccc(-c2nn(-c3ccc(S(C)(=O)=O)cc3)cc2/C=C/C(=O)c2ccc(NC(=O)CO[N+](=O)[O-])cc2)cc1
Output: inactive

Input: Moving on to the next molecule: Cn1cc(-c2cc(N)n3nc(-c4cn(C)c5ccc(F)cc45)cc3n2)c2cc(F)ccc21
Output: inactive

Input: Moving on to the next molecule: CN(C)CCCOc1c2ccccc2nc2c1oc1ccc(Cl)cc12
Output: active

Input: Moving on to the next molecule: Fc1ccc(-c2cc3nc(C(Cl)Cl)nc(-c4ccccc4)n3n2)cc1
Output: active

Input: Moving on to the next molecule: N#Cc1nc(-c2ccccc2)oc1N1CCC(CO)C1 (centres undefined)
Output: inactive

Input: Moving on to the next molecule: CCOc1ccc([C@H]2C(C(=O)c3ccc(Cl)cc3)C3(N[C@@H]2c2ccccc2)C(=O)Nc2ccc(Br)cc23)cc1 (some centres undefined)
Output: inactive

Input: Moving on to the next molecule: CSc1ccc2c(c1)N(C(=O)/C(C#N)=C/c1c[nH]c3ccccc13)c1ccccc1S2
Output: inactive

Input: Moving on to the next molecule: CCOC(=O)c1c(Nc2ccccc2)nn2c(-c3ccco3)c(C#N)cnc12
Output: inactive

Input: Moving on to the next molecule: COc1ccc(NC(=O)c2sc3nc(-c4cnccn4)cc(-c4cccs4)c3c2N)cc1
Output: inactive

Input: Moving on to the next molecule: CCC/C=C/C=C/C(=O)N[C@@H](Cc1cc(F)cc(F)c1)C(=O)N[C@@H]1C(=O)N2CCC[C@H]2C(=O)N2CCCC[C@H]2C(=O)N[C@@H](C)C(=O)N2C[C@H](C)C[C@H]2C(=O)O[C@H]1C
Output: active
